FYI, the data here is from patent US20040198707A1.

experiment: conversion factors for progestogens: amount equivalent to a given amount of levonorgestrel; details: estimate of the amount of progestogen equivalent to a given amount of levonorgestrel (levonorgestrel = 1)

MOLECULE	Conversion factor
C#C[C@]1(OC(C)=O)CC[C@H]2[C@@H]3CCC4=CC(=NO)CC[C@@H]4[C@H]3CC[C@@]21CC (mixture of isomers) [norgestimate]	1.7
CC(=O)[C@H]1CC[C@H]2[C@@H]3C=CC4=CC(=O)CC[C@@]4(C)[C@@H]3CC[C@]12C	133
C#C[C@]1(O)CC[C@H]2[C@@H]3CCC4=CC(=O)CC[C@@H]4[C@H]3CC[C@@]21C	7
C[C@]12CCC(=O)C=C1[C@@H]1C[C@@H]1[C@H]1[C@@H]3[C@@H]4C[C@@H]4[C@@]4(CCC(=O)O4)[C@@]3(C)CC[C@@H]12	20
